This collection of values is drawn from PubChem BioAssay (NCI).

System: NCI-H226 lung
Experiment: NCI-60 one-dose screen, 48 h
Details: 10 µM unless noted
The panel holds about 83,000 compounds, 20% with a hit somewhere; the sample as a whole holds those more often. Active and inactive are the calls of the source. How the source made its calls: active means growth percent below 10; inactive means the rest.
Result category, one only: active, inactive

Completed entries (count: 6):
- compound: "CO[C@H](C(=O)[C@@H](O)[C@@H](C)O)[C@@H]1Cc2cc3cc(O[C@H]4C[C@@H](O[C@H]5C[C@@H](O)[C@H](O)C(C)O5)[C@H](O)C(C)O4)c(C)c(O)c3c(O)c2C(=O)[C@H]1O[C@H]1C[C@@H](O[C@H]2C[C@@H](O[C@H]3C[C@](C)(O)C(=O)C(C)O3)[C@@H](O)C(C)O2)[C@H](O)C(C)O1 (some centres not stated)"
  answer-label: "active"
- compound: "COc1ccc2nc3ccccc3c(NCc3ccc(C)cc3)c2c1"
  answer-label: "inactive"
- compound: "O=c1oc2ccccc2cc1-c1cc(-c2ccc(-c3cc(-c4cc5ccccc5oc4=O)nc(-c4cc5ccccc5oc4=O)c3)cc2)cc(-c2cc3ccccc3oc2=O)n1"
  answer-label: "inactive"
- compound: "CN1C2CCC1/C(=C\\c1ccc(Cl)cc1)C(=O)/C2=C/c1ccc(Cl)cc1"
  answer-label: "inactive"
- compound: "O=C1N(Cc2ccccc2Cl)c2ccccc2C12NN=C(c1ccccc1)S2 (configuration not stated)"
  answer-label: "inactive"
- compound: "CC(C)CCSc1nc(-c2ccc(F)cc2)c(C#N)c(N2CCCCC2)n1"
  answer-label: "inactive"

Turning now to a further compound:
Qu. Which result was noted for this compound in the test: O=C1c2cccc3cccc(c23)C(=O)N1CCCCCCCCCCN1C(=O)c2cccc3cccc(c23)C1=O
Ans. inactive
